Below, each of the compounds is paired with its reported Kd value.
# subject_of_test: TNF receptor-associated factor 6 (Homo sapiens)
# Sequence (Q9Y4K3 whole entry): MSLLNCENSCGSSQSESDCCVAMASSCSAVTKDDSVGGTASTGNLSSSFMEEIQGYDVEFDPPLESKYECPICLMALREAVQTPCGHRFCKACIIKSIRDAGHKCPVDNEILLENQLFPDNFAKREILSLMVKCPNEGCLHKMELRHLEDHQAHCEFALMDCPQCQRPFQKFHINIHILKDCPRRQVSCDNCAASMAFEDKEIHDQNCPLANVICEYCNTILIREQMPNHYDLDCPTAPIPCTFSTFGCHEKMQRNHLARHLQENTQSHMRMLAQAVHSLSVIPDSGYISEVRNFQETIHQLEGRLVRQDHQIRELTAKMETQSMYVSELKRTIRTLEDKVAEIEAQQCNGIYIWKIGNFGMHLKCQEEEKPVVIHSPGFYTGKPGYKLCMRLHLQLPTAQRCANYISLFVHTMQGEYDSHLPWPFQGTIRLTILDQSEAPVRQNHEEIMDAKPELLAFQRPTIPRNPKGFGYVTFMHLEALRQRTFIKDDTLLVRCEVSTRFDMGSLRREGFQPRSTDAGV
# assay_notes: Inhibition of human TRAF6 interaction with biotinylated RANK peptide by NMR interaction analysis
Your answer is read as µM, so omit the unit and give the number.

CS(=O)(=O)NC(=O)c1ccc(NC(=O)Cn2c(=O)sc3ccc(Cl)cc32)cc1: 990

Please report Kd for the following compound: O=C(Cn1c(=O)sc2ccc(Cl)cc21)Nc1ccc(C(=O)O)cc1
1700

Return the recorded Kd value; entry: O=C(Cn1c(=O)sc2ccccc21)Nc1ccc(C(=O)O)cc1
1900

Consider the compound COc1ccc(S(=O)(=O)NC(=O)c2ccc(NC(=O)Cn3c(=O)sc4ccc(Cl)cc43)cc2)cc1Cl and give its recorded Kd.
35
